# MIC90 annotations
Tested on: Mycobacterium tuberculosis
Test: Antitubercular activity against Mycobacterium tuberculosis KMA 4244 by microplate alamar blue assay
Type: functional

CO[C@H]1/C=C/O[C@@]2(C)Oc3c(C)c(O)c4c(O)c(c(/C=N/N5CCN(C)CC5)c(O)c4c3C2=O)NC(=O)/C(C)=C\C=C\[C@H](C)[C@H](O)[C@@H](C)[C@@H](O)[C@@H](C)[C@H](OC(C)=O)[C@@H]1C    0.11 µM
CC(C)N(C(=O)CCNCCC(c1ccccc1)c1ccccc1)C(C)C    6.11 µg/mL
CC(=O)NC[C@H]1CN(c2ccc(N3CCOCC3)c(F)c2)C(=O)O1    1 µM
CC(C)N(C(=O)CNCc1cccc2ccccc12)C(C)C    95.5 µg/mL
COc1c(N2C[C@@H]3CCCN[C@@H]3C2)c(F)cc2c(=O)c(C(=O)O)cn(C3CC3)c12    0.42 µM
CC(C)N(C(=O)CCNCCCC1CCCC1)C(C)C    2.92 µg/mL
NC(=O)c1cnccn1 [PYRAZINAMIDE]    1.51 µM
NNC(=O)c1ccncc1    1.55 µM

Here is the next item to consider.
[ask] // returns reported MIC90 for input COc1nc2ccc(Br)cc2cc1[C@@H](c1ccccc1)[C@@](O)(CCN(C)C)c1cccc2ccccc12
[reply] 0.24 µM
